B1: EHEE_rd4_0086 (parent)
chain: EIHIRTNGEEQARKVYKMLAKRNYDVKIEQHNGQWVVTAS

variants of: B1; assay: folding stability dG (cDNA display proteolysis); higher = more stable; conditions: PBS, room temperature
So basically: folding stability dG at 2 kcal/mol or higher? That is TRUE. Lower than 2 kcal/mol? That is FALSE.

Take a look at these entries with their results.
variant designation: I4E
class label: FALSE
--
variant designation: E29K
class label: FALSE
--
variant designation: K17W
class label: TRUE
--
variant designation: K14A
class label: FALSE
--
variant designation: V36G
class label: FALSE
--
variant designation: H31W
class label: TRUE
--
variant designation: E29F
class label: TRUE
--
variant designation: E29Q
class label: FALSE

q: State whether the measured folding stability dG reaches 2 kcal/mol, counting equality as reaching it, for "D25W"
a: FALSE

q: State whether the measured folding stability dG reaches 2 kcal/mol, counting equality as reaching it, for "K14M"
a: FALSE

q: State whether the measured folding stability dG reaches 2 kcal/mol, counting equality as reaching it, for "H3I"
a: TRUE
